Target: Ataxin-2 (Homo sapiens) (UniProt Q99700)
Sequence (Q99700 whole entry): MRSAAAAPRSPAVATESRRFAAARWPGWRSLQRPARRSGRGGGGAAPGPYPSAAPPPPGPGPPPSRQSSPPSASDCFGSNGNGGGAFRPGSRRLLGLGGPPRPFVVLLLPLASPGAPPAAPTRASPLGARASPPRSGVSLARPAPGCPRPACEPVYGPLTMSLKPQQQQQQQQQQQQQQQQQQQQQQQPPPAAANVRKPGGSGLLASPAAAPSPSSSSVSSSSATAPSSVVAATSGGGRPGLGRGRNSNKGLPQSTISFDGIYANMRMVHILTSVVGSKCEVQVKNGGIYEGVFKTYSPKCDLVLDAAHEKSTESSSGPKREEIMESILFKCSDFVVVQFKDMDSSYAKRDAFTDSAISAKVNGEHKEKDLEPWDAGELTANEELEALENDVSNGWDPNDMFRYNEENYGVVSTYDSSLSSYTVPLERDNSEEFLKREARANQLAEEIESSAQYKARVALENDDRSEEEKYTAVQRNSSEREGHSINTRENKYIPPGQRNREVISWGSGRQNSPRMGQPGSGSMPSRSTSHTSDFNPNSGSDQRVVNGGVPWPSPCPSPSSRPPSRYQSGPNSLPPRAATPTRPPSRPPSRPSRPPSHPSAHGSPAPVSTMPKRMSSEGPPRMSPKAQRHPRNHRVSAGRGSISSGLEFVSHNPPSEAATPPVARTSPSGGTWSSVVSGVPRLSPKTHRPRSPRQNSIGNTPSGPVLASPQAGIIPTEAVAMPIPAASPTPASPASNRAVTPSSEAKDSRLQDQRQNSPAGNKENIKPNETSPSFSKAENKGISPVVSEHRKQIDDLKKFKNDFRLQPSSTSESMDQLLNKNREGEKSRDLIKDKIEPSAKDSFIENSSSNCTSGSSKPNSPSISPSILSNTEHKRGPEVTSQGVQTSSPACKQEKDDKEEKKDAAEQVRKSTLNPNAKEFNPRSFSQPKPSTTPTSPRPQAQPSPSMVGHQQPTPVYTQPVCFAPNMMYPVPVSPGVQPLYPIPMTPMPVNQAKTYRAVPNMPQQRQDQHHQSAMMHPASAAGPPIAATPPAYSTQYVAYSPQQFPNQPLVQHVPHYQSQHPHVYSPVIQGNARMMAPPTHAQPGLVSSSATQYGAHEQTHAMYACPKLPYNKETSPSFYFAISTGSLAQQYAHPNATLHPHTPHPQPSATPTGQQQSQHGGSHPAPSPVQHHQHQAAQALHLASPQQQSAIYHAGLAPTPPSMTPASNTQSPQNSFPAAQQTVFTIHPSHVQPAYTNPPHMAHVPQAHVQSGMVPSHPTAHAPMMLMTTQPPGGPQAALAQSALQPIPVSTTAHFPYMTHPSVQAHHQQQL
Test: qHTS for Inhibitors of ATXN expression.
Format: functional
In all, about 400,000 compounds went through this assay and about 2,100 (0.53%) were called active. Inconclusive results (about 14%) are left out. No rule for the calls is given here. The sample as a whole holds a higher share of actives than the screen did.
Response enum: T = active, F = inactive

[Q] Just curious, what result did COC(=O)c1ccc(NCc2c(O)ccc(O)c2Br)cc1Cl get here?
[A] T

[Q] For O=C(OCc1ccccc1)c1ccc(NCc2cc(O)ccc2O)cc1 then?
[A] T

[Q] For COc1ccc(CC2(CO)CCN(Cc3ccc4c(c3)CCO4)CC2)cc1 then?
[A] F

Further cases:
[Q] Just curious, what result did CC(=O)Cc1cc(O)c2ccccc2c1OC(=O)c1ccccc1 get here?
[A] F

[Q] For CC(C)C(NC(=O)c1c(F)cccc1F)C(=O)NCCc1ccc(S(N)(=O)=O)cc1 (stereo not given) then?
[A] F

[Q] For Cc1nc2nc(-c3ccccc3)cn2nc1C then?
[A] F

[Q] For CCCCn1nnnc1C(c1cc2ccccc2o1)N(CCN(C)C)Cc1ccccc1 (stereo not given) then?
[A] T

[Q] For Cc1c(CN2CCC(CO)(Cc3cccc(C(F)(F)F)c3)CC2)c2ccccc2n1C then?
[A] T

[Q] For COc1ccc(C2C=C(c3ccccc3)Nc3nc(NS(=O)(=O)c4ccc(Cl)cc4)nn32)cc1 (stereo not given) then?
[A] F

[Q] For Cc1cccc(C2=NN(c3ccc(Br)cc3)[C@@H](C(=O)N3CCOC3=O)[C@@H]2c2ccccc2)c1 then?
[A] F
